molecular target: Carbonic anhydrase (Candida glabrata CBS 138, UniProt Q6FTL6); test: Inhibition of Candida glabrata carbonic anhydrase by stopped flow CO2 hydration assay; set-up: species or system Nakaseomyces glabratus
Sequence (Q6FTL6 whole entry): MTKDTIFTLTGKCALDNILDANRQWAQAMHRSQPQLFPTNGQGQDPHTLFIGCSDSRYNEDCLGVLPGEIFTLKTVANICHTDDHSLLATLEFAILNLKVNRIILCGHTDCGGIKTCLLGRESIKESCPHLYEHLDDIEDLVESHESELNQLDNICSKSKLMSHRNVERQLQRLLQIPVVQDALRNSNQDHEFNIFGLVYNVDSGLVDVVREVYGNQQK
VALUE_TYPE: pKi
Give bare numbers, as −log10 of the molar value.

Some solved cases for reference:
[
  {
    "COMPOUND": "OB(O)c1ccccc1",
    "pKi": 4.00
  },
  {
    "COMPOUND": "NS(=O)(=O)O [SODIUM SULFAMATE]",
    "pKi": 3.96
  }
]

Input line: GET /values?readout=pKi&system=Carbonic anhydrase (Candida glabrata CBS 138, UniProt Q6FTL6)&item= NS(N)(=O)=O [SULFAMIDE]
Output line: 3.38
